// provenance: paper PMC10786891

Target: T1, EsCas13d, nuclease-dead (Eubacterium siraeum, UniProt B0MS50, R295A;H300A;R849A;H854A)
T1 sequence: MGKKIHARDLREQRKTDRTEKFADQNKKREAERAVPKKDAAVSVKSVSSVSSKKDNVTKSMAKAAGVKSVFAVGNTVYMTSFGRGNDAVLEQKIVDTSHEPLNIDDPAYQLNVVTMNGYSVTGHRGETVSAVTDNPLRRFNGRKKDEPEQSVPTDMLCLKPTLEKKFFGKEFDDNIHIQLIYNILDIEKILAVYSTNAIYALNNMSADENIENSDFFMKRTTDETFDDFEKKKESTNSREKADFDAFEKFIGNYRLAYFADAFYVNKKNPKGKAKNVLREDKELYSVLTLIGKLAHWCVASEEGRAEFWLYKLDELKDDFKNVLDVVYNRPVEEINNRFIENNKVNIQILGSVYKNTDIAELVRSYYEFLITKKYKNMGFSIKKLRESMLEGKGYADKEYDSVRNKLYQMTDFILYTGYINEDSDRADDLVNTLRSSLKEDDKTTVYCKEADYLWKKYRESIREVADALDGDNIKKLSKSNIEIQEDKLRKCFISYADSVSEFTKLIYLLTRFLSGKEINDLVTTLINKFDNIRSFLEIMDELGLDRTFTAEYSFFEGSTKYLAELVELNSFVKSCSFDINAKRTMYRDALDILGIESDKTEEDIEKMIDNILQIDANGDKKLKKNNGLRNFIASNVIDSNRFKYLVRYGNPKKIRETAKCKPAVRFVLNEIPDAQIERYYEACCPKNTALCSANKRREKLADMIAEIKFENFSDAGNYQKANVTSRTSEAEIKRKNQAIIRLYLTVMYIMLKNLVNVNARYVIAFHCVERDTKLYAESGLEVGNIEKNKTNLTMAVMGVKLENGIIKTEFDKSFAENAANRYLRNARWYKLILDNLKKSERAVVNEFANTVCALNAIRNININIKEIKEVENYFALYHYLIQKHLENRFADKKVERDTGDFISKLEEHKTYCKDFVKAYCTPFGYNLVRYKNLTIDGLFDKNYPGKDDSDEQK
Assay: crRNA (strand 1, pre-loaded); Mg2+; 40 mM Tris-HCl pH 7.5, 150 mM NaCl, 6 mM MgCl2, 1 mM DTT, 0.1% Tween-20, 0.2 mg/ml BSA; 25 C; 10 min per concentration, then washed
Conditions: tags: His6-TwinStrep-SUMO cleaved; N-terminal SNAP kept (SNAP-Surface 488); label: 3' end held by stalled T7 RNA polymerase
This listing pairs binders with measured log10(Kd).
ASSAY_METRIC: log10(Kd) (log10 of the value in nM)

>>> numeric_result("target 3 insG 3' of 11,insA 3' of 6 (mixed) RNA 1: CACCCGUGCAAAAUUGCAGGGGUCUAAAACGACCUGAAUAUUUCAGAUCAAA RNA 2: GGGAAUGGAUCCACAUCUACGAAUUCGUUUUUGAUCUGAAAGUAUUCAAGGUCUGCAGAUCGGAAGAGCACACGU")
1.96
>>> numeric_result("target 1 insA 3' of 5,insU 3' of 2 (mixed) RNA 1: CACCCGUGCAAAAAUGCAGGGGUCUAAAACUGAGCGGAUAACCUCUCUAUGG RNA 2: GGGAAUGGAUCCACAUCUACGAAUUCGUACCAUAGAGAGGUUAUCCGACUCUACCGAGAUCGGAAGAGCACACGU")
1.17
>>> numeric_result("target 1 complement block 6-13 (mixed) RNA 1: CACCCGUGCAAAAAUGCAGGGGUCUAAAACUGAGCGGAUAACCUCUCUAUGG RNA 2: GGGAAUGGAUCCACAUCUACGAAUUCGUACCAUAGAGACCAAUAGGGCUCACCGAGAUCGGAAGAGCACACGU")
1.96
>>> numeric_result("target 3 C6U,A12C (mixed) RNA 1: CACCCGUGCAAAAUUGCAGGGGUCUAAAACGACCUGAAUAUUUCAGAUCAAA RNA 2: GGGAAUGGAUCCACAUCUACGAAUUCGUUUUUGAUCUGACAUAUUUAGGUCUGCAGAUCGGAAGAGCACACGU")
1.86
>>> numeric_result("target 3 C1A,U8G (mixed) RNA 1: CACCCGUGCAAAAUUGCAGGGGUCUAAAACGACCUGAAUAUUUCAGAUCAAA RNA 2: GGGAAUGGAUCCACAUCUACGAAUUCGUUUUUGAUCUGAAAUAGUCAGGUAUGCAGAUCGGAAGAGCACACGU")
1.87
>>> numeric_result("target 2 MT 5'PFS GAG 3'PFS AGC (mixed) RNA 1: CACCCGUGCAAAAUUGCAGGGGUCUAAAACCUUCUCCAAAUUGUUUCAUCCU RNA 2: GGGAAUGGAUCCACAUCUACGAAUUCGAGAGGAUGAAACAAUUUGGAGAAGAGCAGAUCGGAAGAGCACACGU")
0.76
>>> numeric_result("target 1 MT 5'PFS UGG 3'PFS UCG (mixed) RNA 1: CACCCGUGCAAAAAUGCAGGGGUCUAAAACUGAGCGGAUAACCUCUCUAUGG RNA 2: GGGAAUGGAUCCACAUCUACGAAUUCUGGCCAUAGAGAGGUUAUCCGCUCAUCGAGAUCGGAAGAGCACACGU")
1.85
